ASSAY METHOD TEXT: in vitro liver microsome metabolic stability, rat
Assay type: in vitro ADME
TEST PARAMETERS: Rat liver microsomes, 37°C
Protocol: Preparation of working solutions for test compounds and standards: An appropriate amount of the compound was accurately weighed and dissolved in a corresponding volume of suitable solvent to prepare 1 mM stock solutions of the test compounds and standards. The stock solutions were then diluted with appropriate solvent to obtain 100 µM working solutions of the test compounds, ensuring that the DMSO content in the working solutions remained below 10%. […]
MEASUREMENT TYPE: Liver microsome T1-2 (min) Rat

[Q] Given the entry `CC#C[C@H](Nc1c(Nc2ccc(Cl)c(C(=O)N(C)C)c2O)c(=O)c1=O)C1(C)CCCC1` , report its measured Liver microsome T1-2 (min) Rat.
[A] 120.25

(1) CN(C)C(=O)c1nccc(Nc2c(NC(c3nc(F)ccc3F)C3(C)CC(F)(F)CO3)c(=O)c2=O)c1O (stereo not shown)
(2) CN(C)C(=O)c1nccc(Nc2c(N[C@@H](c3ccccn3)C3(C)CCCC3)c(=O)c2=O)c1O
(3) CN(C)C(=O)c1nccc(Nc2c(NC(c3nc(F)ccc3F)C3(C)CC4CC4C3)c(=O)c2=O)c1O (stereo not shown)
[Q] Endpoint returns the given compounds ordered by ascending Liver microsome T1-2 (min) Rat. I'd appreciate it if you listed the labels in the requested order.
[A] 3, 2, 1
